Tested on: UACC-257 melanoma
Assay: NCI-60 one-dose screen, 48 h (100 = growth as untreated, 0 = no growth, -100 = all killed)
Conditions: 10 µM unless noted
Experimental: Cells are grown in 96 well plates and exposed to the test compound for 48 hours. Compounds are tested at a single concentration, which is 10^-5 M for most compounds. The reported endpoint is percent growth (GI% or GIPRCNT), where numbers from 0 - 100% represent growth inhibition, and numbers from -100% - 0 represent cell death. For example, a value of 40 represents 60% growth inhibition. A value of 0 means no net growth occurred over the course of the experiment. […]
Compounds without any hit were thinned out: in the full panel of roughly 83,000, 20% have a hit.
Recorded growth by entry
value.type: growth (%)

INSERT INTO assay_data (molecule, subject_of_test, value_type, recorded_result) VALUES
  ('CCN(CC)CCCC(C)Nc1cnc(C(=O)Nc2cccc3ccc(OC)nc23)cn1 (stereo not drawn)', 'UACC-257 melanoma', 'growth', -39),
  ('Clc1ccc(Nc2ncnc3c2sc2ncccc23)c(Cl)c1', 'UACC-257 melanoma', 'growth', 39.3),
  ('CC(=O)[C@@]1(O)[C@H](C)C[C@H]2[C@@H]3C=C(C)C4=Cc5c(cnn5-c5ccccc5)C[C@]4(C)[C@H]3[C@@H](O)C[C@@]21C', 'UACC-257 melanoma', 'growth', 54.6),
  ('COc1ccc(/C(=C\c2ccc3c(c2)OCO3)C(=O)Nc2nc3ccc(F)cc3s2)cc1OC', 'UACC-257 melanoma', 'growth', 112),
  ('Clc1ccc(-c2nc(Br)cn3ccnc23)cc1', 'UACC-257 melanoma', 'growth', 95.8),
  ('COc1cc(C2CC(c3ccc(Cl)cc3)=NN2C=O)ccc1OS(=O)(=O)c1ccc(C)cc1 (stereo not drawn)', 'UACC-257 melanoma', 'growth', 85.3),
  ('NC(N)=N/N=C\c1ccc(OCc2ccccc2)cc1', 'UACC-257 melanoma', 'growth', 90.4),
  ('FC(F)(F)c1ccc(/C=N/Nc2nnc3n2N=C(c2ccc(Cl)cc2)CS3)cc1', 'UACC-257 melanoma', 'growth', 46.9),
  ('CC(=O)O[C@H]1[C@H](CC#CC#CC[C@@H]2C[C@]3(C)[C@H]4CC=C5[C@H]6[C@@H](C)[C@H](C)CC[C@]6(C(=O)NCCN(CCN)CCN)CC[C@@]5(C)[C@]4(C)CC[C@H]3C(C)(C)[C@H]2OC(C)=O)C[C@]2(C)[C@H]3CC=C4[C@H]5[C@@H](C)[C@H](C)CC[C@]5(C(=O)NCCN(CCN)CCN)CC[C@@]4(C)[C@]3(C)CC[C@H]2C1(C)C', 'UACC-257 melanoma', 'growth', 96),
  ('Cc1cc(C#Cc2ccccc2)ccc1-n1c(/C=C/c2ccc(F)cc2)nc2ccccc2c1=O', 'UACC-257 melanoma', 'growth', 86.7),
  ('CN1CCN(Cc2ccc(NC(=O)c3cncc(C#Cc4ccc(N)nc4)c3)cc2C(F)(F)F)CC1', 'UACC-257 melanoma', 'growth', 11.8),
  ('CCCCCCCCCCCCCCCC1=NCC[N+]1(CCO)CCO', 'UACC-257 melanoma', 'growth', 102),
  ('COc1cc(C)c2c(=O)c3c(oc2c1)C(=O)c1c(O)c(OC)cc(O)c1C3=O', 'UACC-257 melanoma', 'growth', 54),
  ('O=C(Nc1ccc2ncnc(Nc3ccc(F)c(Cl)c3)c2c1)c1cccs1', 'UACC-257 melanoma', 'growth', 101),
  ('O=C(C(=O)c1cccnc1)c1cccnc1', 'UACC-257 melanoma', 'growth', 95),
  ('COC(=O)c1ccc(NC(N)=NCCC(C)(C)c2ccc(C(F)(F)F)cc2)nc1', 'UACC-257 melanoma', 'growth', 38.8),
  ('O=C1c2ccccc2C2N1CCC1CCc3ccccc3N12 (stereo not drawn)', 'UACC-257 melanoma', 'growth', 102),
  ('C[C@@H](C[C@H](CC1CC1)c1ccccc1)c1ccc2ccccc2c1', 'UACC-257 melanoma', 'growth', 106);
